# Experimental system: HA-NES-β23-NLUC-FUS(375-526)[P525L][R/S in 375-422 and 454-526] P525L; all Arg to Ser in 375-422 and 454-526 (UniProt P35637)
# Reported conditions: 2'-F at 1-5 and 16-20, DNA at 6-15; full PS; 5mC at C8, C9, C11; nanoBRET
Measurement label: Kd (µM)
Your answer is read as µM, so omit the unit and give the number.

Request: Dear colleague, I am looking for the recorded Kd of the following sequence: CUGCUAGCCTCTGGAUUUGA [766637 (2'-F 5-10-5 gapmer)]
Result: 0.2
